system: NDR1; construct: gene STK38; settings: Compound Concentration (nM):1000;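 also: KINOMEscan scanMAX binding as percent activity remaining versus control; lower means stronger binding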

# molecule, Percent Control [%]
rows = [
    ("COc1cc(N2CCN(C(C)C)CC2)ccc1Nc1nc(Nc2ccc(F)cc2C(=O)NC[C@@H](O)CO)c2cc[nH]c2n1 [GSK1392956A]", 99),
    ("CCn1c(-c2nonc2N)nc2c(C#CC(C)(C)O)nc(OCCNC)cc21.Cl [GSK949675]", 87),
    ("NS(=O)(=O)c1ccc(N/N=C2\\C(=O)Nc3ccc(-c4cnco4)cc32)cc1 [GW276655]", 67),
    ("CC(C)COC(=O)c1ccc2c(c1)/C(=C/Nc1ccc(S(N)(=O)=O)cc1)C(=O)N2 [GW416981X]", 66),
]

* * *

tested on: BMPR2; settings: Compound Concentration (nM):1000

# compound, units_of_measure, Percent Control
data = [
    ("Cc1cc(O)cc(C)c1/C=C/c1cncc(C(N)=O)c1 [GW435821X]", "%", 100),
    ("COc1cc2ncn(-c3cc(O[C@H](C)c4ccccc4Cl)c(C(N)=O)s3)c2cc1OC [GSK237701A]", "%", 72),
    ("COc1ccccc1-c1cc(/C=C2\\C(=O)Nc3ncc(Br)cc32)cc(Br)c1O [GW442130X]", "%", 97),
    ("NS(=O)(=O)c1ccc(N/N=C2\\C(=O)Nc3ccc(C(=O)NCc4ccncc4)cc32)cc1 [GW300657X]", "%", 68),
    ("CCc1ccc(Oc2nccc(-c3c(-c4ccc(F)cc4)ncn3C3CCNCC3)n2)cc1 [SB-242719]", "%", 82),
    ("C/C(Nc1ccc(S(N)(=O)=O)cc1)=C1/C(=O)Nc2ccccc21 [GW335962X]", "%", 84),
    ("Cl.O=C(O[C@H]1CN[C@H](C#Cc2cc3ncnc(Nc4ccc5c(cnn5Cc5ccccc5)c4)c3s2)C1)N1CCOCC1 [GSK200398A]", "%", 99),
    ("COc1cc(N2CCN(C(C)C)CC2)ccc1Nc1nc(Nc2ccc(F)cc2C(=O)NC[C@@H](O)CO)c2cc[nH]c2n1 [GSK1392956A]", "%", 97),
    ("CN1CCN(C(=O)c2ccc(NC(=O)Nc3ccc(N(C)c4ccnc(Nc5ccc(CS(C)(=O)=O)cc5)n4)cc3)cc2)CC1.Cl [GW830263A]", "%", 56),
    ("COc1cccc(-n2ncc3c(N/N=C/c4ccncc4)ncnc32)c1 [GW784752X]", "%", 86),
    ("COC(=O)Nc1nc2ccc(Oc3ccc(NC(=O)Nc4cc(C(F)(F)F)ccc4F)cc3)cc2s1.Cl [GW693917A]", "%", 99),
    ("Cl.O=S1CCN(Cc2ccc(-c3ccc4ncnc(Nc5ccc(OCc6ccccc6)c(F)c5)c4c3)o2)CC1 [GW576924A]", "%", 100),
    ("Cl.O=C(Nc1ccc(Oc2ccc3[nH]c(NC(=O)c4ccccc4)nc3c2)cc1)Nc1cc(C(F)(F)F)ccc1F [GW709042A]", "%", 100),
    ("COc1ccc(COc2ccc(Cc3cnc(N)nc3N)cc2OC)cc1 [GW632580X]", "%", 94),
    ("O=C(Nc1n[nH]c2nc(-c3ccc(O)cc3)c(Br)cc12)C1CC1 [SB-725317]", "%", 100),
    ("CCS(=O)(=O)c1ccc(OC)c(Nc2ncc(-c3cccc(F)c3)o2)c1 [GW621970X]", "%", 100),
]

Data credit: paper PMC7826789
